B1: TPR 5TU (parent)
chain: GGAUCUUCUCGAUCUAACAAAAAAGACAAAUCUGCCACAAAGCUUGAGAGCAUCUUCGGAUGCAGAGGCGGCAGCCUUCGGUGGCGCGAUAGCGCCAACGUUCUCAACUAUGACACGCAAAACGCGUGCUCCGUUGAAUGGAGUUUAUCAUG

- Variants of: B1
- Test Details: polymerase ribozyme fitness, log enrichment relative to wild type (log ratio); higher = more active; in vitro selection for triplet polymerase activity
Variants at the floor of the assay were thinned out.
Some variants, each annotated with its measured polymerase ribozyme fitness (log ratio).
Test Readout: polymerase ribozyme fitness (log ratio)

[[record]]
variant_code = "A40C A47C C93A A137G U146C"
modifier_sign = "="
observed_result = -4.13

[[record]]
variant_code = "A64G A137G"
modifier_sign = "≤"
observed_result = -4.2

[[record]]
variant_code = "U31A C54U G83U G94U G124A A142C"
modifier_sign = "="
observed_result = -4.09

[[record]]
variant_code = "U55A G86A C93A U104C A113U G126A"
modifier_sign = "≤"
observed_result = -4.2

[[record]]
variant_code = "A16G A30U U90G G152U"
modifier_sign = "≤"
observed_result = -4.2

[[record]]
variant_code = "A40U U45A C69U G83U G141A U144A"
modifier_sign = "≤"
observed_result = -4.2

[[record]]
variant_code = "A107G C132U G133U"
modifier_sign = "="
observed_result = -3.52

[[record]]
variant_code = "A17U C76U C96U"
modifier_sign = "="
observed_result = 0.123

[[record]]
variant_code = "U31G G59A G92U"
modifier_sign = "="
observed_result = -0.919

[[record]]
variant_code = "U56C U109A"
modifier_sign = "="
observed_result = -1.87

[[record]]
variant_code = "C36A U45A C87G A91G"
modifier_sign = "≤"
observed_result = -4.2


Where do the numbers come from? From the RNAGym collection of RNA variant scans (doi:10.1073/pnas.2313332121).
